# target: T1, SARS-COV-2 RBD (SARS-COV-2, UniProt P0DTC2 319-539)
# T1 construct: also called WT RBD
# protocolDescription: ELISA, RBD coated on plate
endpointLabel: EC50 (ng/mL)

INSERT INTO measurements (binder, endpointlabel, unitssymbol, observedresult) VALUES
  ('C922 (antibody, V domains shown) VH: QVQLVESGGGLVKPGGSLRLSCAGSGFTFTDYYMAWIRQAPGKGLEWVSYISTSDRFINYADSVKGRFTISRDDAKNSLYLQMNSLRAEDTAVYYCARDGGGYDRFDHWGQGTLVTVSS VL: DIQMTQSPSSLSASVGDRVTITCQASQDISNLLNWYQQKAGKAPKLLIYDASNLETGVPSRFSGSGSGTDFTFTISSLQPEDIATYYCLQYDNLPLTFGQGTKLEIK', 'EC50', 'ng/mL', 2.42),
  ('C939 (antibody, V domains shown) VH: QVQLVESGGGVVQPGRSLRLSCAASGFTFSSYAMHWVRQAPGKGLESVALISHDGSNKYHADSVKGRLTISRDTSKNTLYLQMDSLRPEDTAVYYCASGLLWFETAGGSGAPDYGMAVWGQGTTVTVSS VL: DIQMTQSPSSLSASVGDRVTITCRASQSISTYLNWYQQKPGRAPKFLIYAASSLQSGVPSRFSGSGSGTDFTLIISGLQPEDFATYFCQQSYNTPLTFGGGTKVEIK', 'EC50', 'ng/mL', 3.62),
  ('C920 (antibody, V domains shown) VH: QLQLQESGPGLVKPSETLSLTCAVSGGSISNSPFYWGWIRQPPGKGLECIGSIYYSGSTYYNPSLKSRVTISVDTSKKQFSLKLSSVTAADTAVYYCARHFADGSGRVVDSWGQGILVTVSS VL: EIVLTQSPATLSLSPGERATLSCRASQSVSSYLAWYQQKPGQAPSLLIYDVSNRATGIPARFSGSGSGTDFTLTISSLEPEDFAVYYCQQRINWPLYTFGQGTKLEIK', 'EC50', 'ng/mL', 2.35),
  ('C1048 (antibody, V domains shown) VH: EVQLVQSGAEVKKPGESLKISCKVSGYSFISHWIGWVRQMPGKGLEWMGIIYPGDSDTRYSPSFQGQVTISADKSISTAYLQWSSLKASDTAMYYCARRGASWELDYWGQGTLVTV VL: QSVLTQPPSASGTPGQRVTISCSGSSSNIGSNPVSWYQQLPGPAPQLLIYGNDQRPSGVPDRFSGSKSGTSASLAISGLQSEDEADYYCAAWDDSLNGYVFGTGTKVTVL', 'EC50', 'ng/mL', 2.41),
  ('C1034 (antibody, V domains shown) VH: QLQLQESGPGLVKPSETLSLTCTVSGGSVSSNNHYWGWIRQPPGKGLEWIGSISSSGSTHHNPSLRSRVTISVDTSKNHFSLKLNSVTATDTAVYYCARVDSSGWYTGDVFDVWGQGTMVTVSS VL: DIQMTQSPSSLSASVGDRVTITCRASQTINNYLNWYQQKPGKPPKLLIYAAFSLHSGVPSRFSGSRSGTDFTLTISSLQPEDFATYYCQHSYSTMCSFGQGTKLEIK', 'EC50', 'ng/mL', 2.77),
  ('C997 (antibody, V domains shown) VH: EVQLLESGGGLVQPGGSLRLSCAASGFTFSKDAMSWVRQAPGKGLEWVSTVTGSGTNTYYADSVKGRFTISRDNSNNTLYLQMNSLRAEDTAVYYCANHPLGAAEGYYYYYMDVWGKGTTVTVSS VL: EIVLTQSPGTLSLSPGERGTLSCRASQRVPSSQLAWYQQKSGQAPRLLIYGASSRASGIPDRFSGSGSGTDFTLNISRLEPEDFAVYYCQQYGSLRALTFGGGTKVEIK', 'EC50', 'ng/mL', 3.49),
  ('C1036 (antibody, V domains shown) VH: EVQLVESGGGLIQPGGSLRLSCAASGLIVSRNYMNWVRQVPGKGLEWVSVMYAGGSTFYADSVKGRFTISRDDSKNTLYLQMNSLRPEDTAVYYCARESYGMDVWGQGTTVTVSS VL: EIVLTQSPGTLSLSPGERATLSCRASQSISSTYLAWYQQKPGQAPRLLIYGASSRATGIPDRFSGSGSGTDFTLTISRLEPEDFAVYYCQQYVTSPWTFGQGTKVEIK', 'EC50', 'ng/mL', 1.02),
  ('C928 (antibody, V domains shown) VH: QVQLVESGGGVVQPGRSLRLSCAASGFTFSFFDMHWVRQAPGKGLEWVADISYDGSNQYYGDSVKGRFTISRDNSKSTLYLQMNSLRAEDTAVYYCAKPVDTAMFDSWGQGTLVTVSS VL: SYELTQPPSVSVAPGETARITCGGNNIGHKSVHWYQQQPGQAPVLVIYYDSERPSGIPERFSGSNSGNTATLTISRVEAGDEADYHCQVWDGGNDHLVIFGGGTKLTVL', 'EC50', 'ng/mL', 4.14),
  ('C1009 (antibody, V domains shown) VH: EVQLVESGGGLLQPGGSLRLSCAASGFSVSSNYMTWVRQAPGKGLEWVAAIYSGDSTYYVDSVKGRFIISRDNSKNTVYLHLSSLRAEDTAVYYCARLVGYDFRSGSDGGYFDYWGHGTLVTVSS VL: QSALTQPASVSGSPGQSITISCTGTSSDIGNYNLVSWYQQHPGKAPKLMIYDVSKRPSGVSNRFSGSKSGNTASLTISGLQAEDETDYYCCSYAGSSTWVFGGGTKLTVL', 'EC50', 'ng/mL', 1.34),
  ('C1041 (antibody, V domains shown) VH: QVQLVQSGAEVKKPGASVKVSCKASGYTFSDHYIYWVRQAPGQGLEWMGIINPSAGSTSYAQKFQGRVTMTRDTSTSTVYMELSSLRSEDTAVYYCARDIVFVPATMAMDVWGLGTTVTVSS VL: EIVLTQSPATLSLSPGERATLSCRASQSVSRYLAWYQQKPGQAPRLLIYDASNRATGIPARFSGSGSGTDFTLTISSLEPEDFAVYYCQQRSNWLFTFGPGTKVDIK', 'EC50', 'ng/mL', 3.65);

Data provenance is patent US20240218057A1.
